Test: inhibitors of TNFa-induced NFkB p65 translocation, primary screen, imaging, HUVEC, MLSMR starter and 10KST1 sets (AID 438);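 further: compound added about 3h40 before a 20 min TNFalpha stimulation; signal is the nuclear over cytoplasmic p65 intensity ratio per well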
Conditions: HUVEC TNFa-induced p65 nuclear translocation; at 2 µM, hits give high values, 0% TNFa-plus-vehicle, 100% no-TNFa wells
Kindly supply the reported inhibition values for the records listed here.
Return type: number; implicit unit %.

Query: Given CC(=O)C1(C)OC(N)=C(C#N)C(c2ccccc2)C1(C#N)C#N (configuration not stated) , state its recorded inhibition.
Response: -7.2

Query: Given c1cc(-c2nnc3sc(C4CCCCC4)nn23)ccn1 , state its recorded inhibition.
Response: -3

Query: Given CC1(C)CC(NC(=O)C23CCC(C)(/C(=N/O)C2)C3(C)C)CC(C)(C)N1 (configuration not stated) , state its recorded inhibition.
Response: -8.3

Query: Given Cc1ccc(C)c(OCc2nnc(NC(=O)c3ccco3)s2)c1 , state its recorded inhibition.
Response: -2.1

Query: Given Cc1cc(Cn2ccnc2)c(C)cc1Cn1ccnc1 , state its recorded inhibition.
Response: -4.4

Query: Given CCCCN(CCCC)CCCOC(=O)c1ccc(N)cc1 , state its recorded inhibition.
Response: -1.8

Query: Given CCn1cc(C(=O)O)c(=O)c2cc(F)c(N3CCNCC3)nc21 , state its recorded inhibition.
Response: -1.9

Query: Given Cc1cccc(C)c1OCC(O)CNS(=O)(=O)c1ccccc1C(=O)N1CCCCC1 (configuration not stated) , state its recorded inhibition.
Response: 5.4

Query: Given C=CCOc1nc2c(c(=O)n(C)c(=O)n2C)n1Cc1c(Cl)cccc1Cl , state its recorded inhibition.
Response: -2.9

Query: Given COc1ccccc1-n1c(=O)c2c3c(sc2n2c(SC)nnc12)CCC3 , state its recorded inhibition.
Response: -29

Query: Given CN1C(=S)SC(N(O)C(=O)Nc2ccccc2)C1(C)C (configuration not stated) , state its recorded inhibition.
Response: 8.3

Query: Given CCC(=O)N[C@@H]1CC(C(C)(C)NC(=O)CC)CC=C1C (some centres not stated) , state its recorded inhibition.
Response: -16.4

Query: Given CN(C)[C@@H]1C(=O)C(C(N)=O)=C(O)[C@@]2(O)C(=O)C3=C(O)c4c(O)ccc(Cl)c4[C@@H](O)[C@H]3C[C@@H]12 , state its recorded inhibition.
Response: -3

Query: Given CN1C2C=C3C(C#N)=C(N)C(C#N)(C#N)[C@@H](c4ccc(Cl)cc4)[C@@H]3C1CC2 (some centres not stated) , state its recorded inhibition.
Response: -3.5

Query: Given CCc1cn([C@H]2C[C@H](O)[C@@H](CO)O2)c(=O)[nH]c1=O , state its recorded inhibition.
Response: -9.9

Query: Given CC1CN(C2CCN(C(=O)COc3ccccc3)CC2)CC(C)O1 (configuration not stated) , state its recorded inhibition.
Response: -12.6

Query: Given CC(C)CC(=O)Nc1ncnc2c1C(=O)CC(C)(C)C2 , state its recorded inhibition.
Response: -9.9

Query: Given N#CC(C(=O)NC1CC1)c1nc2ccccc2nc1N1CCN(C/C=C/c2ccccc2)CC1 (configuration not stated) , state its recorded inhibition.
Response: -4.6

Query: Given N#CC1=C(N)NC(SCc2ccc(Cl)cc2)=C(C#N)C12CCCCC2 , state its recorded inhibition.
Response: -23

Query: Given COc1cccc(N2CCN(C3CC(=O)N(c4cccc(Cl)c4)C3=O)CC2)c1 (configuration not stated) , state its recorded inhibition.
Response: -2.2

Query: Given O=C(Nc1nc(=O)c2ccccc2s1)c1ccccc1 , state its recorded inhibition.
Response: 5.5

Query: Given CCOc1nnnc2c1sc1nc(N3CCOCC3)c3c(c12)CC(C)(C)OC3 , state its recorded inhibition.
Response: -3.2
